Biological target: Mu-type opioid receptor (Homo sapiens)
Sequence (P35372 whole entry): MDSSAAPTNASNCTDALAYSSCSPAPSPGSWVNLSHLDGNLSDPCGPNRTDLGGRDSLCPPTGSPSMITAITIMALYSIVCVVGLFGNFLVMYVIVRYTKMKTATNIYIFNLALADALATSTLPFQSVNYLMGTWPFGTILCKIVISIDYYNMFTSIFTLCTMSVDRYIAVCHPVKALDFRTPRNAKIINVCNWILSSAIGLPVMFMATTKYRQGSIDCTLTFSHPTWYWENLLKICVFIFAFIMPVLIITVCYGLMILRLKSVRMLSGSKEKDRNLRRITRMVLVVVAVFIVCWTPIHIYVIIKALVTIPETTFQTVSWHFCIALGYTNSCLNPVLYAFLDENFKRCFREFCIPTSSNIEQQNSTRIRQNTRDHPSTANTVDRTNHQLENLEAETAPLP
METRIC NAME: pKi
Scale: negative log10 of molar concentration, which is what pKi denotes.

>>> print(df.to_string())
                                   molecule  reported_result
0  CC1OC2(CCN(CCc3ccccc3)CC2)CN(c2cccc(C(F)(F)F)n2)C1=O (stereo not drawn)             7.05
1  CC1OC2(CCN(CCc3ccccn3)CC2)CN(c2ccccc2)C1=O (stereo not drawn)             7.05
2  CCC1OC2(CCN(CCc3ccccc3)CC2)CN(c2ccccc2)C1=O (stereo not drawn)             8.52
3  CC(=O)Nc1cccc(CCN2CCC3(CC2)CN(c2ccccc2)C(=O)[C@@H](C)O3)c1             7.34
4  COC(=O)CC1OC2(CCN(CCc3ccccc3)CC2)CN(c2ccccc2)C1=O (stereo not drawn)             7.04

*Q* Consider the molecule CC1OC2(CCN(CCc3ccccc3)CC2)CN(c2ccccn2)C1=O (stereo not drawn) and give its measured pKi.
*A* 6.03

*Q* Consider the molecule `O=C1COC2(CCN(Cc3ccccc3)CC2)CN1c1ccccc1` and give its measured pKi.
*A* 6.27
